Data origin, for the record: patent US8859580B2

- target-of-assay: 11β-HSD1 (Homo sapiens)
- Construct: detecting cortisol generated from cortisterone by human liver microsomes; from tissue; host or cells: human liver microsomes
- Sequence (P28845 whole entry): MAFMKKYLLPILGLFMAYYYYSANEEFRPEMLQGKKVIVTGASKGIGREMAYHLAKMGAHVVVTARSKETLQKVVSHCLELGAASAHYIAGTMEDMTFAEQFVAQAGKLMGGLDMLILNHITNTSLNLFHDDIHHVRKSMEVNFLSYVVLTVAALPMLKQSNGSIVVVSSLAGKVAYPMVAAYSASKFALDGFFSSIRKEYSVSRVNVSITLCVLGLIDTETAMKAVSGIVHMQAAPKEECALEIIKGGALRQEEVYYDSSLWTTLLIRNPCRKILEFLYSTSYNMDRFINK
- experimental-details: In vitro inhibition of 11β-HSD1, HTRF detection of cortisol generated from cortisone by human liver microsomes
- Format: biochemical
- recorded-conditions: 11β-HSD IC50 (nM), 1 hour at 37° C., pH 6.0, NADPH 200 μM, cortisone 80 nM, inhibition relative to carbenoxolone signal
parameter-measured: log10 IC50 (log10 of the value in nM)
Transform log10 | Measure IC50 | Unit nM

[
  {
    "compound": "CC1(C)[C@H]2Cc3c(O)cccc3[C@]1(C)CCN2C(=O)c1ccc(C(=O)NCc2ccccc2)cc1",
    "log10 IC50": 3.56
  },
  {
    "compound": "CC(=O)Nc1cccc(C(=O)N2CC[C@@]3(C)c4cccc(O)c4C[C@@H]2C3(C)C)c1",
    "log10 IC50": 3.30
  },
  {
    "compound": "CC12CCN(C(=O)c3ccc4ncsc4c3)C(Cc3ccccc31)C2 (stereo not drawn)",
    "log10 IC50": 2.61
  }
]

Asked: Checklist item: log10 IC50 tested on 11β-HSD1 (Homo sapiens), entry Cc1nc2cc3c(cc2n1C)[C@]1(C)CCN(C(=O)c2ccc4nc[nH]c4c2)[C@H](C3)C1(C)C , value?
Given back: 2.74

Asked: Quick one: CC1(C)[C@H]2Cc3c(O)cccc3[C@]1(C)CCN2C(=O)c1ccc(Cn2cncn2)cc1
Given back: 2.56

Asked: Quick one: C[C@H]1[C@H]2Cc3ccc(O)cc3[C@]1(C)CCN2C(=O)c1ccccc1[N+](=O)[O-]
Given back: 3.20
